# measurement.target: T1, C-terminally FLAG-tagged human Gas6 recombinant protein (hGas6-F) (human, UniProt Q14393 31-678, gamma-carboxylated glutamic acid residues in the Gla domain (producer cells co-express rat VKOR and human GGCX); positions not given)
# T1 construct: also called human Gas6-F; human Gas6 protein
# T1 sequence: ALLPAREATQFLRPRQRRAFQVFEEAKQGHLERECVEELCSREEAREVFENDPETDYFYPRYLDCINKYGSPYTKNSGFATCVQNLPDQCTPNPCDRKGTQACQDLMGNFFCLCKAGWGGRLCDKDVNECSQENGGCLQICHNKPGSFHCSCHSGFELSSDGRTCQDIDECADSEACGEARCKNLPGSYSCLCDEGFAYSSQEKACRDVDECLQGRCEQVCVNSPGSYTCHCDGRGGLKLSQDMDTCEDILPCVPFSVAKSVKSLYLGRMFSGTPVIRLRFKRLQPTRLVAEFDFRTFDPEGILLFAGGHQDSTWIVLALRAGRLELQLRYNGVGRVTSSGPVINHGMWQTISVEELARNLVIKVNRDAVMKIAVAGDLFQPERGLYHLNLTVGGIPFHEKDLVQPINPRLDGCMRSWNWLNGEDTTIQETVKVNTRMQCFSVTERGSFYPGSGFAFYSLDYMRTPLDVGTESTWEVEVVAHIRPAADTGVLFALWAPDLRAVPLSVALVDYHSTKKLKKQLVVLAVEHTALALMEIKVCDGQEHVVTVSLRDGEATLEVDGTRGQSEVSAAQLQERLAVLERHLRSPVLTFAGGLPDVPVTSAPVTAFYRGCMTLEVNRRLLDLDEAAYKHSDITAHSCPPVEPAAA
# measurement.description: SPR Biacore T100, captured antibody, Gas6 analyte, first test

{"binder": "hzKM5321 LV1cHV7 antibody (antibody, V domains shown, Humanized; variant human IgG4 constant region (EU S228P, L235E, R409K), human kappa; also called B-15; LV1cHV7) VH: QIHLVQSGPELKKPGASVKISCKASGYTFTNYGMNWVKQAPGQGLKWMGWINTNTGEPTYTEEFKGRFVFSLDTSVTTAYLQISTLKAEDTATYFCARDEGWFVYWGQGTLITVSS VL: ETTLTQSPSSLSVSVGDRVTITCITSTDIDDDMNWYQQKPGKAPKLLISEGNTLRPGVPSRFSGSGSGTDFTLTISSLQPEDFATYYCLQTDSVPLTFGQGTKVEIK", "kon": "> 101000 M⁻¹ s⁻¹"}
{"binder": "hzKM5320 LV1bHV0 antibody (antibody, V domains shown, Humanized; variant human IgG4 constant region (EU S228P, L235E, R409K), human kappa; also called A-04) VH: QVQLVQSGSELKKPGASVKVSCKASGYTFTNYGMNWVRQAPGQGLEWMGWINTETGEPTYSDDFKGRFVFSLDTSVSTAYLQISSLKAEDTAVYYCAREDGYYGTLDYWGQGTTVTVSS VL: DVVMTQSPDSLAVSLGERVTINCKASQSVSNDVAWYQQKPGQSPKLLIYYASNRYTGVPDRFSGSGSGTDFTLTISSVQAEDVAVYYCQQDYSSPWTFGQGTKLEIK", "kon": "> 72000 M⁻¹ s⁻¹"}
{"binder": "hzKM5320 LV2aHV8 antibody (antibody, V domains shown, Humanized; variant human IgG4 constant region (EU S228P, L235E, R409K), human kappa; also called A-13) VH: QIQLVQSGPELKKPGASVKISCKASGYTFTNYGMNWVKQAPGQGLKWMGWINTETGEPTYSDDFKGRFVFSLDTSVTTAYLQISSLKAEDTATYFCAREDGYYGTLDYWGQGTTVTVSS VL: DVVMTQSPDSLAVSLGERVTINCKASQSVSNDVAWYQQKPGQSPKLLIYYASNRYTGVPDRFSGSGSGTDFTLTISSVQAEDVAVYFCQQDYSSPWTFGQGTKLEIK", "kon": "> 78600 M⁻¹ s⁻¹"}
